Biological target: T1, rhesus CD45 ectodomain (Macaca mulatta, UniProt A0A1D5R142)
T1 construct: purified human, rhesus or cynomolgus CD45 ectodomain
T1 sequence (A0A1D5R142 26-581): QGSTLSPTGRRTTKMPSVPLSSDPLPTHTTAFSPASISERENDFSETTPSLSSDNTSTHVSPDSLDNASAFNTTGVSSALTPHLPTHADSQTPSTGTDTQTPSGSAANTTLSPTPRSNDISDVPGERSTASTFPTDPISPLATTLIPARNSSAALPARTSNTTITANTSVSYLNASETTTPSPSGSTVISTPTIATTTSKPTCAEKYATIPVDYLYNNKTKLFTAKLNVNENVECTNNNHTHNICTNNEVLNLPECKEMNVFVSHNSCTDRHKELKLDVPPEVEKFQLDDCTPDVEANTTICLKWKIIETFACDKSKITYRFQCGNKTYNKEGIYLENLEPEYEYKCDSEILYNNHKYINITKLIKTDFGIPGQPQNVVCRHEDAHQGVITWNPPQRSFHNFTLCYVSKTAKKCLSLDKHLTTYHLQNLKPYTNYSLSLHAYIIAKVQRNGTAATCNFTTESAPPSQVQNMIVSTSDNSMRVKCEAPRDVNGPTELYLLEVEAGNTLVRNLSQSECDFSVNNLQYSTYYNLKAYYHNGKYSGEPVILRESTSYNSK
Assay: Biolayer interferometry (BLI, Octet) binding of immobilized IgG to purified CD45 ectodomain
Conditions: Table 2, Rhesus CD45
Value type: Kon
Please answer in the form of a number followed by its unit of measurement.

Molecule	Value type	Measurement
Ab7: variant of Ab3 with asparagine to serine substitution in CDR-L1; VH SEQ ID NO:61, VL SEQ ID NO:65 (antibody, V domains shown) VH: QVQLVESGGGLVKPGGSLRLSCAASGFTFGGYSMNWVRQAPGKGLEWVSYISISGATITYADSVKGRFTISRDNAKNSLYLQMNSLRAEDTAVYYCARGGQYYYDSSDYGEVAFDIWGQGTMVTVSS VL: DIVMTQSPLSLPVTPGEPASISCRSSQSLVSSGYNYLDWYLQKPGQSPQLLIYFGSSRASGVPDRFSGSGSGTDFTLKISRVEAEDVGVYYCMQRRRTPPFTFGGGTKVEIK	Kon	124000 M⁻¹ s⁻¹

## Input Give recorded Kon. Ab4: affinity matured human anti-CD45 IgG derived from Ab1; VH SEQ ID NO:31, VL SEQ ID NO:35 (antibody, V domains shown) VH: EVQLVESGGGLVQPGGSLRLSCAASGFTFEAYSMNWVRQAPGKGLEWVSYISLSGATIHYADSVKGRFTISRDNAKNSLYLQMNSLRAEDTAVYYCARGGQYYYTSSDYGEVAFDIWGQGTMVTVSS VL: DIVMTQSPLSLPVTPGEPASISCRSSQSLVSNGYNYLDWYLQKPGQSPQLLIYFGSSRASGVPDRFSGSGSGTDFTLKISRVEAEDVGVYYCMQRRRTPWSFGGGTKVEIK
## Output 118000 M⁻¹ s⁻¹
